The sequences listed here are annotated with their self-splicing fitness (ln).
assayInfo: self-splicing fitness, log relative to wild type (ln ratio); higher = more splicing; Tetrahymena group I intron in knt gene, E. coli kanamycin selection, DiMSum; sequences stand for … in CUCUCU…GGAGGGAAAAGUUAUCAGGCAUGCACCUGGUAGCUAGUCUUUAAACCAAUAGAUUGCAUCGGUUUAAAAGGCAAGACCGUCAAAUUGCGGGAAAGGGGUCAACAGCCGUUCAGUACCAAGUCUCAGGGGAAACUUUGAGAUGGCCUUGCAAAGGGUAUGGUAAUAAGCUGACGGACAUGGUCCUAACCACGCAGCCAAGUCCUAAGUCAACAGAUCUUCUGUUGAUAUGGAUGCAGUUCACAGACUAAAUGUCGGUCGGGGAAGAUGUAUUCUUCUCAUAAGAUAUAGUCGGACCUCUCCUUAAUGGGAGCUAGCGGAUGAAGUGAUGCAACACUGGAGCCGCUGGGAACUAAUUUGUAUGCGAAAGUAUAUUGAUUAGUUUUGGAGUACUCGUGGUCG;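 also: selection with 25 µg/mL kanamycin versus none on LB agar overnight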
protocolConditions: 30 °C
assayMetric: self-splicing fitness (ln)

querysequence=UUUCAGCAAUAUUACGAGGG recordedvalue=-3.94
querysequence=UUAAAGCAAUAUUACGCGUA recordedvalue=-0.515
querysequence=UUAAAGCAAUAUUACGCGCU recordedvalue=-0.179
querysequence=UAUGAGCAAUAUUACGAAUG recordedvalue=-2.49
querysequence=GUUGAGCAAUAUUACGGUUC recordedvalue=-3.63
querysequence=UGCCAGCAAUAUUACGGGAU recordedvalue=-3.16

====

The sequences listed here are annotated with their self-splicing fitness (ln).
assayInfo: self-splicing fitness, log relative to wild type (ln ratio); higher = more splicing; Tetrahymena group I intron in knt gene, E. coli kanamycin selection, DiMSum; sequences stand for … in CUCUCU…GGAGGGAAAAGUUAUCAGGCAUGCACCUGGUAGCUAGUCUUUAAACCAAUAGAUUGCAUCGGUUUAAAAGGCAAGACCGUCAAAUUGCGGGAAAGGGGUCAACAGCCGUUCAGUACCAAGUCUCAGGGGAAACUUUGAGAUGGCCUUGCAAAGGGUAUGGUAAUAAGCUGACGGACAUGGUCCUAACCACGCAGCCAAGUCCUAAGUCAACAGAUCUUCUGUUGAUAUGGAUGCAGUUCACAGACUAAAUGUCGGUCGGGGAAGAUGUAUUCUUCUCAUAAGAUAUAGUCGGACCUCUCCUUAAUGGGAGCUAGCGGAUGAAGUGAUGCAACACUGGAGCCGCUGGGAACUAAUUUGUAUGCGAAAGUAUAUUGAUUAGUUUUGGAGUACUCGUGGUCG
protocolConditions: 37 °C
assayMetric: self-splicing fitness (ln)

querysequence=GUAGAGCAAUAUUACGUACC assaymetric="self-splicing fitness (ln)" recordedvalue=-1.59
querysequence=UAGCAGCAAUAUUACGGUCU assaymetric="self-splicing fitness (ln)" recordedvalue=-1.24
querysequence=UUCCAGCAAUAUUACGAUGC assaymetric="self-splicing fitness (ln)" recordedvalue=-2.79
querysequence=UCACAGCAAUAUUACGGUUC assaymetric="self-splicing fitness (ln)" recordedvalue=-2.7
querysequence=CCGUAGCAAUAUUACGAACA assaymetric="self-splicing fitness (ln)" recordedvalue=-2.26
querysequence=CGGGAGCAAUAUUACGAUUA assaymetric="self-splicing fitness (ln)" recordedvalue=-3.69
querysequence=AUGUAGCAAUAUUACGGGCG assaymetric="self-splicing fitness (ln)" recordedvalue=-1.28
querysequence=CACUAGCAAUAUUACGCUUG assaymetric="self-splicing fitness (ln)" recordedvalue=-0.991
querysequence=GGAAAGCAAUAUUACGCGUG assaymetric="self-splicing fitness (ln)" recordedvalue=-0.486
querysequence=CCCUAGCAAUAUUACGGGAG assaymetric="self-splicing fitness (ln)" recordedvalue=-1.79
querysequence=UGCCAGCAAUAUUACGAUAA assaymetric="self-splicing fitness (ln)" recordedvalue=-1.19
querysequence=CUUGAGCAAUAUUACGUGCC assaymetric="self-splicing fitness (ln)" recordedvalue=-2.75
querysequence=CCAUAGCAAUAUUACGCCAU assaymetric="self-splicing fitness (ln)" recordedvalue=-2.41
querysequence=UCCCAGCAAUAUUACGCUGA assaymetric="self-splicing fitness (ln)" recordedvalue=-3.02
querysequence=AAAUAGCAAUAUUACGCGUG assaymetric="self-splicing fitness (ln)" recordedvalue=-0.804
querysequence=UGGAAGCAAUAUUACGCAGG assaymetric="self-splicing fitness (ln)" recordedvalue=-1.47
querysequence=AUCUAGCAAUAUUACGACAG assaymetric="self-splicing fitness (ln)" recordedvalue=-2.68
querysequence=GGAUAGCAAUAUUACGAUAA assaymetric="self-splicing fitness (ln)" recordedvalue=-1.46
querysequence=CUGCAGCAAUAUUACGAGGC assaymetric="self-splicing fitness (ln)" recordedvalue=-1.97
querysequence=GUUAAGCAAUAUUACGUAAG assaymetric="self-splicing fitness (ln)" recordedvalue=-0.0396
querysequence=GAUGAGCAAUAUUACGAAGU assaymetric="self-splicing fitness (ln)" recordedvalue=-2.84
querysequence=UAAUAGCAAUAUUACGGGGU assaymetric="self-splicing fitness (ln)" recordedvalue=-1.38
querysequence=ACUAAGCAAUAUUACGCCUU assaymetric="self-splicing fitness (ln)" recordedvalue=-0.381
querysequence=GGGCAGCAAUAUUACGCCGG assaymetric="self-splicing fitness (ln)" recordedvalue=0.118
querysequence=UCGUAGCAAUAUUACGGCGA assaymetric="self-splicing fitness (ln)" recordedvalue=-0.98
querysequence=UGGGAGCAAUAUUACGGCCA assaymetric="self-splicing fitness (ln)" recordedvalue=-0.684
querysequence=ACAAAGCAAUAUUACGGUUG assaymetric="self-splicing fitness (ln)" recordedvalue=-1.89
querysequence=ACUCAGCAAUAUUACGGUCU assaymetric="self-splicing fitness (ln)" recordedvalue=0.311
querysequence=CGCAAGCAAUAUUACGCCUG assaymetric="self-splicing fitness (ln)" recordedvalue=-2.52
querysequence=GCCUAGCAAUAUUACGGCUG assaymetric="self-splicing fitness (ln)" recordedvalue=-3.29
querysequence=GUCUAGCAAUAUUACGACGC assaymetric="self-splicing fitness (ln)" recordedvalue=0.364
querysequence=AGGAAGCAAUAUUACGUAAC assaymetric="self-splicing fitness (ln)" recordedvalue=-2.18
querysequence=GAUUAGCAAUAUUACGCUUA assaymetric="self-splicing fitness (ln)" recordedvalue=-0.752
querysequence=GUGUAGCAAUAUUACGCCUA assaymetric="self-splicing fitness (ln)" recordedvalue=-0.813
querysequence=CUCUAGCAAUAUUACGUGUC assaymetric="self-splicing fitness (ln)" recordedvalue=-3.91
querysequence=AGAUAGCAAUAUUACGGCGC assaymetric="self-splicing fitness (ln)" recordedvalue=-0.0937
querysequence=UGUCAGCAAUAUUACGCUCU assaymetric="self-splicing fitness (ln)" recordedvalue=-0.226
querysequence=UGCGAGCAAUAUUACGUGCU assaymetric="self-splicing fitness (ln)" recordedvalue=-1.79
querysequence=UGUAAGCAAUAUUACGUAUA assaymetric="self-splicing fitness (ln)" recordedvalue=-0.761
querysequence=GCGAAGCAAUAUUACGUCCU assaymetric="self-splicing fitness (ln)" recordedvalue=0.569
querysequence=AUCAAGCAAUAUUACGCAGG assaymetric="self-splicing fitness (ln)" recordedvalue=-1.8
querysequence=UUCAAGCAAUAUUACGCAAG assaymetric="self-splicing fitness (ln)" recordedvalue=-0.676
querysequence=GCAGAGCAAUAUUACGGGCU assaymetric="self-splicing fitness (ln)" recordedvalue=-2.03
querysequence=AAAAAGCAAUAUUACGACAG assaymetric="self-splicing fitness (ln)" recordedvalue=-0.774
querysequence=CUCAAGCAAUAUUACGGCGU assaymetric="self-splicing fitness (ln)" recordedvalue=-2.39
querysequence=ACUCAGCAAUAUUACGGACG assaymetric="self-splicing fitness (ln)" recordedvalue=-0.156
querysequence=GUAUAGCAAUAUUACGCCAG assaymetric="self-splicing fitness (ln)" recordedvalue=-1.26
querysequence=GUCAAGCAAUAUUACGCACU assaymetric="self-splicing fitness (ln)" recordedvalue=-0.433
querysequence=AGCAAGCAAUAUUACGCCCU assaymetric="self-splicing fitness (ln)" recordedvalue=-0.679
querysequence=GUCCAGCAAUAUUACGAAUU assaymetric="self-splicing fitness (ln)" recordedvalue=0.257
querysequence=AACAAGCAAUAUUACGAAGU assaymetric="self-splicing fitness (ln)" recordedvalue=-1.29
querysequence=UCCGAGCAAUAUUACGUGAC assaymetric="self-splicing fitness (ln)" recordedvalue=-2.66
querysequence=UACAAGCAAUAUUACGAACG assaymetric="self-splicing fitness (ln)" recordedvalue=-0.0708
querysequence=CCCCAGCAAUAUUACGUGCC assaymetric="self-splicing fitness (ln)" recordedvalue=-2.57
querysequence=AGACAGCAAUAUUACGGCUG assaymetric="self-splicing fitness (ln)" recordedvalue=-2.34
querysequence=CAGGAGCAAUAUUACGAGAG assaymetric="self-splicing fitness (ln)" recordedvalue=-1.67
querysequence=UUCGAGCAAUAUUACGGGGG assaymetric="self-splicing fitness (ln)" recordedvalue=-2.23
querysequence=UUAGAGCAAUAUUACGCUGU assaymetric="self-splicing fitness (ln)" recordedvalue=-1.56
querysequence=GAUUAGCAAUAUUACGCACG assaymetric="self-splicing fitness (ln)" recordedvalue=-1.14
querysequence=AGUCAGCAAUAUUACGCUGU assaymetric="self-splicing fitness (ln)" recordedvalue=-2.73
querysequence=UCCAAGCAAUAUUACGUCUU assaymetric="self-splicing fitness (ln)" recordedvalue=-1.46
querysequence=CUCGAGCAAUAUUACGCAGA assaymetric="self-splicing fitness (ln)" recordedvalue=-0.967
querysequence=GAUGAGCAAUAUUACGCCCA assaymetric="self-splicing fitness (ln)" recordedvalue=0.487
